Just for reference, patent EP4635958A1 is where these values come from.

Assay Explanation: Pharmacokinetic determination in mice (IV and PO, plasma, LCMS/MS)
Format: in vivo, Balb/c mice
Experimental Setup: mouse, in vivo, po, 30 mg/kg
Readout: Cmax (ng/mL)
Write the answer as a number in ng/mL, unit excluded.

If you can, please state the reported Cmax value of [2H]C([2H])([2H])[C@@H]1Oc2nc(-c3cc(O)cc4ccc(F)c(C#C)c34)c(F)c3nc(OCC4(CN5CCC(=C(F)F)CC5)CC4)nc(c23)N2C[C@H]3CC[C@H](N3)[C@@H]12 .
221

----------
Assay Explanation: Pharmacokinetic determination in mice (IV and PO, plasma, LCMS/MS)
Assay type: in vivo, Balb/c mice
Experimental Setup: male, Balb/c, mouse, in vivo, iv, 1 mg/kg
# reported clearance; entries follow
Write it as a number; the unit mL/min/kg goes unstated.

[
  {
    "Molecule": "C#Cc1c(F)ccc2cc(O)cc(-c3ncc4c(N5CC6CCC(C5)N6)nc(OC[C@@]56CCCN5C[C@H](F)C6)nc4c3F)c12 [MRTX-1133, reference compound]",
    "clearance [mL/min/kg]": 55
  }
]

Proceeding to the next molecule to report its clearance.
Recorded clearance of C#Cc1c(F)ccc2cc(O)cc(-c3nc4c5c(nc(OCC6(CN7CCC(=NOC)CC7)CC6)nc5c3F)N3CC5CCC(N5)C3CO4)c12 (centres unmarked) [Example 21-1] , please.
14.1
